The reported measurements were obtained from PubChem BioAssay.

z-score by entry:
method_summary: E. coli acrAB mutant growth effects, primary screen, E. coli filamentation inducers, strain DRC39, OD650, 48 h (AID 1179);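 note: screen aims at cell division blockers that make cells filament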
condition_summary: E. coli DRC39 delta-acrAB growth, higher = more signal, called active from +8 up or from −8 down
Active and inactive are the calls of the source.
parameter: z-score

> print(dat)
                                   compound  parameter     endpoint.value
1  CC(C)=C1C(=O)C(c2ccccc2)=C2CN3C(=O)N(CCc4ccccc4)C(=O)[C@]3(Cc3ccc(F)cc3)[C@H]21    z-score  -0.853 (inactive)
2  COc1ccc(-c2ccc3c(n2)CCCN3CC(O)CN2CCCc3nc(C)c(C)cc32)cc1 (stereo not drawn)    z-score    0.65 (inactive)
3  COc1ccc(COC(=O)NN=C2C[C@@H](O)[C@@H](O)[C@@H]3[C@@H]4C(=O)N(Cc5ccc6c(c5)OCO6)C(=O)[C@@H]4CC[C@@H]23)cc1    z-score  -0.279 (inactive)
